test system: measles virus (MeV); experiment: measles virus cytopathic effect (CPE) reduction assay; format: cell-based; conditions: Measles morbillivirus, read-out: MeV (CPE) 50% inhibitory concentration
pIC50: −log10 of the molar value.
Measurement type: pIC50

Given the compound Cc1ccc(NC(=O)C(C)Sc2nc3ccccc3n2C2CCCN(C)C2)c(Cl)c1 (stereo not shown) [Compound 18b] , what is its reported pIC50?
< 6.54

----------
assay: physchem; conditions: pH 7.4
Measurement type: solubility

Given the compound Cc1ccc(NC(=O)C(C)Sc2nc3ccccc3n2CCN2CCNCC2)c(Cl)c1 (stereo not shown) [Compound 18e] , what is its reported solubility?
> 100 µg/mL

----------
test system: measles virus (MeV) recombinant; test: microbe, parasite or virus in culture; format: cell-based; details: Measles morbillivirus, read-out: EC50 MeV
Measurement type: EC50
Report the figure along with its unit, number first.

Given the compound Cc1ccc(NC(=O)C(C)Sc2nc3ccccc3n2-c2cccc(CCN3CCOCC3)c2)c(Cl)c1 (stereo not drawn) [Compound 14b] , what is its reported EC50?
13 nM

Next: Cc1ccc(NC(=O)[C@H](C)Sc2nc3ccccc3n2-c2ccccc2CN2CCN(C)CC2)c(Cl)c1 [(S)-14a]
68 nM

Next: Cc1ccc(NC(=O)[C@@H](C)Sc2nc3ccccc3n2-c2ccc(CCN3CCOCC3)cc2)c(Cl)c1 [(R)-14c]
530 nM

Next: COc1ccc(-n2c(S[C@H](C)C(=O)Nc3ccc(C)cc3Cl)nc3ccccc32)cc1 [(R)-1]
880 nM

Next: Cc1ccc(NC(=O)C(C)Sc2nc3ccccc3n2-c2ccc(CCN3CCOCC3)cc2)c(Cl)c1 (stereo not drawn) [Compound 14c]
110 nM

Next: COc1ccc(-n2c(S[C@@H](C)C(=O)Nc3ccc(C)cc3Cl)nc3ccccc32)cc1 [(S)-1]
37 nM

Next: Cc1ccc(NC(=O)[C@H](C)Sc2nc3ccccc3n2-c2ccc(CCN3CCOCC3)cc2)c(Cl)c1 [(S)-14c]
180 nM

Next: Cc1ccc(NC(=O)[C@H](C)Sc2nc3ccccc3n2-c2cccc(CCN3CCOCC3)c2)c(Cl)c1 [(S)-14b]
11 nM

Next: Cc1ccc(NC(=O)[C@@H](C)Sc2nc3ccccc3n2-c2ccccc2CN2CCN(C)CC2)c(Cl)c1 [(R)-14a]
470 nM

Next: Cc1ccc(NC(=O)[C@@H](C)Sc2nc3ccccc3n2-c2cccc(CCN3CCOCC3)c2)c(Cl)c1 [(R)-14b]
210 nM

Next: COc1ccc(-n2c(SC(C)C(=O)Nc3ccc(C)cc3Cl)nc3ccccc32)cc1 (stereo not drawn) [Compound 1]
31 nM

Next: Cc1ccc(NC(=O)C(C)Sc2nc3ccccc3n2-c2ccccc2CN2CCN(C)CC2)c(Cl)c1 (stereo not drawn) [Compound 14a]
41 nM

----------
experiment: physchem; details: pH 7.4, aqueous buffer, kinetic from dmso stock
Assignment: determine reported solubility for the given compounds.
Entry rule: numbers only, all in µg/mL.

Given the compound Cc1ccc(NC(=O)C(C)Sc2nc3ccccc3n2CCN2CCOCC2)c(Cl)c1 (stereo not drawn) [Compound 18d] , what is its reported solubility?
22

Next: Cc1ccc(NC(=O)C(C)Sc2nc3ccccc3n2-c2cccc(CCN3CCOCC3)c2)c(Cl)c1 (stereo not drawn) [Compound 14b]
15

Next: Cc1ccc(NC(=O)C(C)Sc2nc3ccccc3n2C2CCCN(C)C2)c(Cl)c1 (stereo not drawn) [Compound 18b]
19

From: paper PMC3566758
